# targetSystem: full-length beta-Catenin (Uniprot ID P35222) (Homo sapiens (Human)) (UniProt P35222)
# Sequence (P35222 2-781 limits assumed): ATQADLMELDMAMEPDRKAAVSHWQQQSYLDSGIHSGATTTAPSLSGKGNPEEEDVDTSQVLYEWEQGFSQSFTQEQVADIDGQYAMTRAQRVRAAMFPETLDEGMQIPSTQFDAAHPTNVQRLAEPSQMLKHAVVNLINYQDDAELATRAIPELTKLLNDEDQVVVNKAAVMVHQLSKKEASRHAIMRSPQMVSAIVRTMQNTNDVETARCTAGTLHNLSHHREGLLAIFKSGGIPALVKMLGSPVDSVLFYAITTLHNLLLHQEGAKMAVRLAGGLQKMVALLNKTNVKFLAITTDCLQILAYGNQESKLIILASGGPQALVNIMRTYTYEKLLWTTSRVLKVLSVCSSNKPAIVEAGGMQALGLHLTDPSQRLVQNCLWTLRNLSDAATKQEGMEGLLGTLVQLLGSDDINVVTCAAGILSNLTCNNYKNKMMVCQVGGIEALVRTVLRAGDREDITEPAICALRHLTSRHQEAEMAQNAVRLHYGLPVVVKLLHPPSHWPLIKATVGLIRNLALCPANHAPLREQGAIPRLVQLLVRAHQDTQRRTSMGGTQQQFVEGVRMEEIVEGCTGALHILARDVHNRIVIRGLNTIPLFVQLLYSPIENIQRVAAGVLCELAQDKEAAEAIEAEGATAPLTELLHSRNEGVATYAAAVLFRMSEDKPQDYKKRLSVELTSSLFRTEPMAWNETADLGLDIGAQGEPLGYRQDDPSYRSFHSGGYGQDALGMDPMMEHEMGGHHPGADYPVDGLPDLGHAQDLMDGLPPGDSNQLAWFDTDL
# protocolText: fluorescence polarization competition; full-length beta-catenin; competitor displaced: 5FAM-TCF4 10-53
Starred links: 1 amine or outer side, 2 acyl side, 3 side chain; linkers in the order of their positions; H or OH if unused. Positions of bridges follow the written chain, without caps; N, C: chain ends. Non-standard residues stand in square brackets, D forms with d. Primed or numbered codes have the meaning given here. PyrS2″ = (S)-3-amino-1-((pent-4-en-1-yloxy)carbonyl)pyrrolidine-3-carboxylic acid (stapling residue), C=CCCCOC(=O)N1CC[C@@](N[*:1])(C(=O)[*:2])C1; B5(4) = 2,2-bis(4-pentenyl)glycine = 2-amino-2-(pent-4-en-1-yl)hept-6-enoic acid (stitching residue), C=CCCCC(CCCC=C)(N[*:1])C(=O)[*:2]; B5(8) = 2,2-bis(4-pentenyl)glycine (2-amino-2-(pent-4-en-1-yl)hept-6-enoic acid, stitching residue), C=CCCCC(CCCC=C)(N[*:1])C(=O)[*:2]; TfeGA = (S)-2-amino-3-((carboxymethyl)(2,2,2-trifluoroethyl)amino)propanoic acid, O=C([C@H](CN(CC(=O)[*:3])CC(F)(F)F)N[*:1])[*:2]; Bta = N[C@@H](Cc1csc2ccccc12)C(=O)O; αAllylPro = C=CC[C@@]1(C(=O)O)CCCN1; tBuAla = CC(C)(C)C[C@H](N)C(=O)O; 3Thi = N[C@@H](Cc1ccsc1)C(=O)O; S8 = C=CCCCCCC[C@](C)(N)C(=O)O
A collection of binders and their measured IC50

- binder: "Ac-[αAllylPro]D[tBuAla][B5(8)]DEAAFN[PyrS2″][3Thi][Bta]H-NH2 (staple 1-4, 4-11) [I-697]"
  unitOfMeasurement: "nM"
  IC50: 5
- binder: "Ac-[αAllylPro]D[tBuAla][B5(8)]DDAAFN[PyrS2″][3Thi][Bta]H-NH2 (staple 1-4, 4-11) [I-694]"
  unitOfMeasurement: "nM"
  IC50: 5
- binder: "Ac-[αAllylPro]D[tBuAla][B5(4)]DEAAFN[PyrS2″]F[Bta]H-NH2 (staple 1-4, 4-11; not fully specified) [I-693]"
  unitOfMeasurement: "nM"
  IC50: 12
- binder: "Ac-[αAllylPro]D[tBuAla][B5(4)]DEAAFN[S8][3Thi][Bta]Q-NH2 (staple 1-4, 4-11; not fully specified) [I-683]"
  unitOfMeasurement: "nM"
  IC50: 19
- binder: "Ac-[αAllylPro]D[tBuAla][B5(4)]DEAAFN[S8][3Thi][Bta]Q-NH2 (staple 1-4, 4-11; not fully specified) [I-682]"
  unitOfMeasurement: "nM"
  IC50: 41
- binder: "Ac-[αAllylPro]D[tBuAla][B5(8)]DDAAFN[PyrS2″][3Thi][Bta]H-NH2 (staple 1-4, 4-11) [I-695]"
  unitOfMeasurement: "nM"
  IC50: 5
- binder: "Ac-[αAllylPro]D[tBuAla][B5(8)]DEAAFN[PyrS2″][3Thi][Bta]H-NH2 (staple 1-4, 4-11) [I-698]"
  unitOfMeasurement: "nM"
  IC50: 5
- binder: "Ac-[αAllylPro]D[tBuAla][B5(4)]DEAAFN[PyrS2″][3Thi][Bta]Q-NH2 (staple 1-4, 4-11; not fully specified) [I-691]"
  unitOfMeasurement: "nM"
  IC50: 9
- binder: "Ac-[αAllylPro]DI[B5(8)]D[TfeGA]AAFN[S8][3Thi][Bta]H-NH2 (staple 1-4, 4-11) [I-702]"
  unitOfMeasurement: "nM"
  IC50: 76
